protocol-notes: Plasma stability assay, CD-1 mouse plasma
Assay type: in vitro ADME
stated-conditions: CD-1 mouse plasma, 240 min, 10 μM, 37° C.
Description: 5. Plasma and Metabolic Stability Assays Example compounds were dissolved in DMSO/H2O 90:10 to a final concentration of 10 mM for plasma stability determination and metabolic stability determination. […] The filtrate (100 μL) is evaporated and reconstituted in the suitable solvent (cf. Table 33) to be analyzed by HPLC/MS/MS. […]
The compounds listed here are annotated with their Plasma Stability 240 min mouse/(rat) [% remain.].
Don't forget the unit after the number, please.

// solved cases for Plasma Stability 240 min mouse/(rat) [% remain.] follow
[
  {
    "compound": "COCCNC(=O)[C@@H]1CCC(=O)N[C@H](C)COc2ccc(OC)cc2-c2cccc(c2)C(=O)N1C [Ex. 51]",
    "reported-value": "80 % remain."
  },
  {
    "compound": "COc1ccc2c(c1)-c1cccc(c1)C(=O)N(C)[C@H](C(=O)N1CCCC1)CCC(=O)N[C@H](C)CO2 [Ex. 46]",
    "reported-value": "78 % remain."
  },
  {
    "compound": "C[C@H]1COc2cccc(c2)-c2cccc(c2)C(=O)N(C)[C@H](C(=O)NCCN(C)C)CCC(=O)N1 [Ex. 84]",
    "reported-value": "56 % remain."
  }
]

### Prompt Dear colleague, I am looking for the recorded Plasma Stability 240 min mouse/(rat) [% remain.] of the following compound: C[C@H]1COc2cccc(c2)-c2cccc(c2)C(=O)N(C)[C@H](C(=O)NCc2cccc3ccccc23)CCC(=O)N1 [Ex. 74]
### Response 67 % remain.

### Prompt Entry to check: C[C@H]1COc2cccc(c2)-c2cccc(c2)C(=O)N(C)[C@H](C(=O)NCc2cn(C)cn2)CCC(=O)N1 [Ex. 88]
### Response 81 % remain.

### Prompt Param item: COc1ccc2c(c1)-c1cccc(c1)C(=O)N(C)[C@H](C(=O)O)CCC(=O)N[C@H](C)CO2 [Ex. 42]
### Response 100 % remain.

### Prompt Same lookup for CNC(=O)[C@@H]1CCC(=O)N[C@@H](C)COc2cccc(c2)-c2cccc(c2)C(=O)N1C [Ex. 70] , please.
### Response 61 % remain.

### Prompt Request: COc1ccc2c(c1)-c1cccc(c1)C(=O)N(C)[C@H](C(=O)NC1CC1)CCC(=O)N[C@H](C)CO2 [Ex. 52]
### Response 95 % remain.

### Prompt Let us now turn to C[C@H]1COc2cccc(c2)-c2cccc(c2)C(=O)N(C)[C@H](C(=O)NCc2ccc3ccccc3c2)CCC(=O)N1 [Ex. 89]
### Response 76 % remain.

### Prompt Now the compound COc1ccc2c(c1)-c1cccc(c1)C(=O)N(C)[C@H](C(=O)NCCO)CCC(=O)N[C@H](C)CO2 [Ex. 55]
### Response 80 % remain.

### Prompt Also COCCNC(=O)[C@@H]1CCC(=O)N[C@@H](C)COc2cccc(c2)-c2cccc(c2)C(=O)N1C [Ex. 77] ?
### Response 85 % remain.

### Prompt Can you check CNC(=O)[C@@H]1CCC(=O)N[C@H](C)COc2ccc(OC)cc2-c2cccc(c2)C(=O)N1C [Ex. 44] next?
### Response 83 % remain.

### Prompt Query COc1ccc2c(c1)-c1cccc(c1)C(=O)N(C)[C@H](C(=O)NCC(F)(F)F)CCC(=O)N[C@H](C)CO2 [Ex. 53] next
### Response 86 % remain.

### Prompt Follow-up entry: C[C@H]1COc2cccc(c2)-c2cccc(c2)C(=O)N(C)[C@H](C(N)=O)CCC(=O)N1 [Ex. 71]
### Response 92 % remain.

### Prompt Entry to check: C[C@H]1COc2cccc(c2)-c2cccc(c2)C(=O)N(C)[C@H](C(=O)NCC(F)(F)F)CCC(=O)N1 [Ex. 78]
### Response 86 % remain.
